Source of measurements: patent US20240092930A1

assay system: T1, recombinant human Trop-2-his protein (ACCESSION NO.: NP_002344.2, AA 1-274) (human, UniProt P09758 27-274)
T1 construct: range 27-274; also called recombinant human Trop-2 protein; recombinant human Trop-2 extracellular domain; not shown: his tag
T1 sequence (looked up): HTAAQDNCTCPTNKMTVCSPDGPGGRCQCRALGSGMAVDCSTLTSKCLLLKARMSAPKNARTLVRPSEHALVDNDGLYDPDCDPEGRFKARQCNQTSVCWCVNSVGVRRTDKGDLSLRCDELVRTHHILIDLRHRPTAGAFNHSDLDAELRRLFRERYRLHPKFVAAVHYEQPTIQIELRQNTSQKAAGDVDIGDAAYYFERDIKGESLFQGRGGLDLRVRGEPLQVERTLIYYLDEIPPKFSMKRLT
assay info: ELISA, coated Trop-2-his 0.2 µg/ml
Experimental: Plates were coated with recombinant human Trop-2-his protein (ACCESSION NO.: NP_002344.2, AA 1-274) at a concentration of 0.2 μg/ml overnight at 4° C. and then blocked with 5% BSA for 60 min in a constant temperature incubator at 37° C. […] Absorbances at 450 nm and at 630 nm (as reference wavelength) were read, and A450 nm-630 nm values of the wells in the plates were recorded.
metric name: pEC50
The read-out pEC50 is expressed as -log10 of concentration in moles per litre.

Request: Requested read-out: pEC50. Entry: chimeric antibody ch23-12 (antibody, human IgG1, V domains shown) VH: QVQLQQPGAELVKPGASVKLSCKADGYIFTSYWMHWVKQRPGQGLEWIGEITPSDNYTSYNQKFKGKATLTVDKSSSTAYMQLSSLTSEDSAVYYCTRGHGNYVSFDYWGQGTTLTVSS VL: DIQMTQITSSLSASLGDRVTITCRASQDISNYLNWYQQKPDGTVKLLIYYTSRLHSGVPSRFSGSGSGTDYSLTISNLEQEDIATYFCQQGYTLPPYTFGGGTKLEIK
Result: 9.34
